Source listed as patent US20090325959A1.

Target: IRAK1 (Homo sapiens)
Construct: purchased Upstate, Millipore Bioscience Division (KinaseProfiler service)
Sequence (P51617 whole entry): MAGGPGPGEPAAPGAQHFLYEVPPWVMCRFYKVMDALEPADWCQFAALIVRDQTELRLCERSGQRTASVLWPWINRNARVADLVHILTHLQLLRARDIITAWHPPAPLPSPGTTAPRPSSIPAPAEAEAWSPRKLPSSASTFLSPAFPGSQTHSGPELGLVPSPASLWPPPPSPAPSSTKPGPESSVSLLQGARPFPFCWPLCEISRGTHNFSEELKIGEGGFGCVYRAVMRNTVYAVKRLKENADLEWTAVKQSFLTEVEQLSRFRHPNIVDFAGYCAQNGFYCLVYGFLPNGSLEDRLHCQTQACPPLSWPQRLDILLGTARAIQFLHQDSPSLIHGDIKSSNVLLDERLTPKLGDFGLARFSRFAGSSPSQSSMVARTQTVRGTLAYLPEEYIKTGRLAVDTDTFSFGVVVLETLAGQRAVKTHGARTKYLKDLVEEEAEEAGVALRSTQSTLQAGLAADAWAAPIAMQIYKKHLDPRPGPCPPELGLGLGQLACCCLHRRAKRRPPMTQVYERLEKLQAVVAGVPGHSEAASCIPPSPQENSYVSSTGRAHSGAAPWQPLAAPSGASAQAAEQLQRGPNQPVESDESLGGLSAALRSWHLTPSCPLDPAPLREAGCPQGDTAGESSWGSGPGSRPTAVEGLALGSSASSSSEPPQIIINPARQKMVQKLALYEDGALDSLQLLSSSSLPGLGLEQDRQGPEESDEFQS
Experiment: Kinase panel screen (KinaseProfiler), IRAK1
Format: biochemical
Conditions: 10 μM test compound, 10 μM ATP; read-out: IRAK1 Percent inhibition, 10 μM
Excerpt: Compounds of Formulae I and II were examined for activity against a selected panel of kinases using the KinaseProfiler™ enzyme profiling services (Upstate, Millipore Bioscience Division). […]

{"structure.string": "NC(=O)Cn1ccc2cc(CN3CC[C@@H](Nc4cccc5cnccc45)C3)ccc21", "activity at 10 µM": "30%"}
{"structure.string": "Cc1ccc(CN2CCC[C@@H](Nc3ccc4[nH]ncc4c3)C2)cc1OCCO", "activity at 10 µM": "99%"}
{"structure.string": "NC(=O)Cn1ccc2cc(CN3CCC[C@@H](Nc4ccc5[nH]ncc5c4)C3)ccc21", "activity at 10 µM": "97%"}
{"structure.string": "OCCn1ccc2cc(CN3CC[C@@H](Nc4cccc5cnccc45)C3)ccc21", "activity at 10 µM": "32%"}

* * *

# reported pKi; entries follow
Target: p70S6K human enzyme (Homo sapiens, UniProt P23443, T412E)
Construct: purchased Upstate Chemicon 14-486
Sequence (P23443 1-421 T412E limits assumed): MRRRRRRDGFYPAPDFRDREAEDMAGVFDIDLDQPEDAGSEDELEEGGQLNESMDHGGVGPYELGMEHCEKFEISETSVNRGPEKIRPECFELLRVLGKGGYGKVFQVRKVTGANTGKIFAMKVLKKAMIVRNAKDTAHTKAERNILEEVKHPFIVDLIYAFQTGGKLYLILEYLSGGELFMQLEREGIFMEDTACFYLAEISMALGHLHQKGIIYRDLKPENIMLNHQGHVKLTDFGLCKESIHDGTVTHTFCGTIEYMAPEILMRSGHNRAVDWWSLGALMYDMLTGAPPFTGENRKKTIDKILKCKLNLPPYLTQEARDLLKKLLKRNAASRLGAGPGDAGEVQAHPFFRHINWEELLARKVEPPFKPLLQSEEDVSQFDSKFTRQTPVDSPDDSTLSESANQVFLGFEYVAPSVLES
Experiment: p70S6K inhibition assay (IMAP FP);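 further: kinase reaction run at room temperature, phosphorylated substrate captured on IMAP beads and read as fluorescence polarization in mP, IC50 then converted to Ki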
Assay type: biochemical
Conditions: average Ki; read-out: p70S6K Ki
pKi: −log10 of the molar value.
measured.parameter: pKi

{"structure.string": "CS(=O)(=O)Nc1cc(CN2CCC[C@@H](Nc3ccc4[nH]ncc4c3)C2)ccc1Cl", "observed.measurement": 6.05}
{"structure.string": "OCCn1ccc2ccc(CN3CCC[C@@H](Nc4ccc5[nH]ncc5c4)C3)cc21", "observed.measurement": 6.29}
{"structure.string": "COc1ccc(CN2CCC[C@H](Nc3ccc4[nH]ncc4c3)C2)cc1", "observed.measurement": 5.52}
{"structure.string": "CC(=O)NCc1cccc(CN2CCC[C@H](Nc3ccc4[nH]ncc4c3)C2)c1", "observed.measurement": 5.06}
{"structure.string": "NC(=O)Cn1ccc2ccc(CN3CC[C@@H](Nc4cccc5cnccc45)C3)cc21", "observed.measurement": 6.67}
{"structure.string": "CS(=O)(=O)Nc1cccc(CN2CCC[C@@H](Nc3ccc4[nH]ncc4c3)C2)c1", "observed.measurement": 5.69}
{"structure.string": "CS(=O)(=O)Nc1cccc(CN2CC[C@@H](Nc3cccc4cnccc34)C2)c1", "observed.measurement": 5.85}
{"structure.string": "Cc1ccc(CN2CCC[C@H](Nc3ccc4[nH]ncc4c3)C2)cc1OCCO", "observed.measurement": 6.28}
{"structure.string": "NC(=O)COc1cccc(CN2CCC[C@H](Nc3ccc4[nH]ncc4c3)C2)c1", "observed.measurement": 5.56}
{"structure.string": "Cc1ccc(CN2CCC[C@@H](Nc3ccc4[nH]ncc4c3)C2)cc1O", "observed.measurement": 6.47}
{"structure.string": "CCOC(=O)COc1cccc(CN2CCC[C@H](Nc3ccc4[nH]ncc4c3)C2)c1", "observed.measurement": 5.41}
{"structure.string": "c1ccc(CN2CC[C@@H](Nc3cccc4cnccc34)C2)cc1", "observed.measurement": 6.12}
{"structure.string": "c1cc(N[C@@H]2CCN(Cc3ccc4occc4c3)C2)c2ccncc2c1", "observed.measurement": 6.51}
{"structure.string": "c1cc2c(cc1CN1CCC[C@H](Nc3ccc4[nH]ncc4c3)C1)OCCO2", "observed.measurement": 5.29}
{"structure.string": "CCS(=O)(=O)Nc1cc(CN2CCC[C@H](Nc3ccc4[nH]ncc4c3)C2)ccc1C", "observed.measurement": 5.60}
{"structure.string": "NS(=O)(=O)c1cccc(CN2CCC[C@@H](Nc3ccc4[nH]ncc4c3)C2)c1", "observed.measurement": 6.03}
{"structure.string": "CSc1ccc(CN2CCC[C@H](Nc3ccc4[nH]ncc4c3)C2)cc1", "observed.measurement": 6.01}
